For each entry below, report its IC50 value.
- targetOfAssay: human mGluR7 (Homo sapiens (Human), UniProt Q14831)
- Sequence (Q14831 35-915): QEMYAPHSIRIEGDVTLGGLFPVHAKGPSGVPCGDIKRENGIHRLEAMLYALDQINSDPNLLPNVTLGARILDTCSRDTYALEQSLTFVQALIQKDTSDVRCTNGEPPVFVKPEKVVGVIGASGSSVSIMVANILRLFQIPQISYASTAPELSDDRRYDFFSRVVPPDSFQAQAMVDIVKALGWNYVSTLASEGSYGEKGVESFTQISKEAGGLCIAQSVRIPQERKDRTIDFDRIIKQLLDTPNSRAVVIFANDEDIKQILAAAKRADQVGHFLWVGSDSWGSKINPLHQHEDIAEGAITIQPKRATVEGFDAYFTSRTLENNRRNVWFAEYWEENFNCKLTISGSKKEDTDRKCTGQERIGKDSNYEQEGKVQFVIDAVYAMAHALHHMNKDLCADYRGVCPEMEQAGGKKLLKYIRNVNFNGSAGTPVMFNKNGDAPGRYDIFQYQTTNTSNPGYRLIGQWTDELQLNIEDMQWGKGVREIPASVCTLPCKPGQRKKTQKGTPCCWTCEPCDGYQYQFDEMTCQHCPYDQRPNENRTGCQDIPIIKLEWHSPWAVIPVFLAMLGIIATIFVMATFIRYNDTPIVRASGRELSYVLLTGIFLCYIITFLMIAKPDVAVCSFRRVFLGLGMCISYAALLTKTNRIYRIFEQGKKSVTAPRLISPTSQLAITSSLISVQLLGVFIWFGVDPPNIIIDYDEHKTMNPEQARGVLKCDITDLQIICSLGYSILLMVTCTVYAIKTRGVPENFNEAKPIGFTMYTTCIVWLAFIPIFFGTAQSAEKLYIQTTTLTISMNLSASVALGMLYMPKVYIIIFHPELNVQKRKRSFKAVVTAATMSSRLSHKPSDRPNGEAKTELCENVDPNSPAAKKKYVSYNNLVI
- procedureText: Inositol monophosphate production assay (IP1 assay), inhibition of L-AP4 response
- Format: cell-based
- conditionParameters: mean IC50 from at least two independent experiments; HEK293 cells transiently transfected with mGluR7, Gqtop and EAAC1; IP1 production vs EC80 L-AP4

The molecule listed as Cc1c(OC2CC2)cccc1C1CCc2c(cnn(-c3ncccn3)c2=O)C1 (single isomer, unassigned; (+)) [Example 129] has a reported IC50 of 500 to 1000 nM

The measured IC50 associated with Cc1ccc2c(cnn2C)c1C1CCc2c(cnn(-c3ncccn3)c2=O)C1 (stereo not shown) reads 1000 to 30000 nM

Measured IC50 of COc1cccc(C2CCc3c(cnn(-c4ncccn4)c3=O)C2)c1F (stereo not shown) : < 500 nM

Query O=c1c2c(cnn1-c1ncccn1)CC(c1cccc(OC3CC3)c1Cl)CC2 (single isomer, unassigned; (-)) [Example 130] yields IC50 of < 500 nM

###

- targetOfAssay: human mGluR7 (Homo sapiens (Human), UniProt Q14831)
- procedureText: Inositol monophosphate production assay (IP1 assay), inhibition of L-AP4 response
- Assay type: cell-based
- conditionParameters: mean IC50 from at least two independent experiments; HEK293 cells transiently transfected with mGluR7, Gqtop and EAAC1; IP1 production vs EC80 L-AP4
Consider the following compounds; for each one, report its IC50.

Looking up COc1ccc(C)c(C2CCc3c(cnn(-c4ccccn4)c3=O)C2)c1 (centres unmarked) , I see its IC50 listed as < 500 nM

Record O=c1c2c(cnn1-c1ncccn1)CC(c1cccc3c1ccn3C1CC1)CC2 (single isomer, unassigned; (-)) [Example 139] . Reported IC50: < 500 nM

Per the records, this compound ( COc1ccc(C(F)(F)F)c(C2CCc3c(cnn(-c4ncccn4)c3=O)C2)c1 (centres unmarked) ) has IC50 equal to 1000 to 30000 nM

Entry Cc1cc(Cl)ccc1C1CCc2c(cnn(-c3ncccn3)c2=O)C1 (centres unmarked) — recorded IC50 = < 500 nM

Record Cc1ccc(C2CCc3c(cnn(-c4ncc(N5CCOCC5)cn4)c3=O)C2)c(C)c1 (centres unmarked) . Reported IC50: < 500 nM

// recorded IC50 for Cc1ccc(C2CCc3c(cnn(-c4cc(C#N)ccn4)c3=O)C2)c(C)c1 (centres unmarked) : < 500 nM

// sample COc1cnc(-n2ncc3c(c2=O)CCC(c2ccc(C)cc2C)C3)nc1 (centres unmarked) , its IC50 was < 500 nM

So, Cc1cnc(-n2ncc3c(c2=O)CCC(c2ccc(C)cc2C)C3)nc1 (centres unmarked) ? Its IC50 was < 500 nM

###

- targetOfAssay: UniProtKB Q14831
- procedureText: Inositol monophosphate production assay (IP1 assay), inhibition of L-AP4 response
- Format: cell-based
- conditionParameters: mean IC50 from at least two independent experiments; HEK293 cells transiently transfected with mGluR7, Gqtop and EAAC1; IP1 production vs EC80 L-AP4
endpointName: IC50

Looking up Cc1ccc(C2CCc3c(cnn(-c4nccs4)c3=O)C2)c(C)c1 (stereo not drawn) , I found its IC50 recorded as 500 to 1000 nM

Noted for Cc1ccc(C2CCc3c(cnn(-c4ccccn4)c3=O)C2)c(C)c1 (stereo not drawn) [Example 1] : its IC50 reads < 500 nM

Reported IC50 of Cc1ccc(C2CCc3c(cnn(-c4ncc(C(F)(F)F)cn4)c3=O)C2)c(C)c1 (stereo not drawn) : < 500 nM
